# Tested on: HepG2 cells
# assay.method.text: Cell viability (WST-1 assay), HepG2 cells
# Type: cell-based
# stated.conditions: Homo sapiens, HepG2, HepG2 cells, SULF2 knockdown (SULF2 shRNA)

{"compound": "CNC(=O)c1cc(Oc2ccc(NC(=O)Nc3ccc(Cl)c(C(F)(F)F)c3)cc2)ccn1 [Sorafenib]", "units.symbol": "nM", "IC50": 2380}

====

# Tested on: Huh7 cells
# assay.method.text: Cell viability (WST-1 assay), Huh7 cells
# Assay type: cell-based, Human
# stated.conditions: Homo sapiens, Huh-7, Huh7 cells expressing NTRK3-WT
pIC50: −log10 of the molar value.

{"sample.smiles": "CNC(=O)c1cc(Oc2ccc(NC(=O)Nc3ccc(Cl)c(C(F)(F)F)c3)cc2)ccn1", "tested.system": "Huh7 cells", "pIC50": 5.12}

The values you see were collected from patent US11510911B2.
